biological target: Histone deacetylase 1 (Homo sapiens, UniProt Q13547); settings: at 0.1 µM;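 further: measured with the HDAC-Glo assay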
Sequence (Q13547 whole entry): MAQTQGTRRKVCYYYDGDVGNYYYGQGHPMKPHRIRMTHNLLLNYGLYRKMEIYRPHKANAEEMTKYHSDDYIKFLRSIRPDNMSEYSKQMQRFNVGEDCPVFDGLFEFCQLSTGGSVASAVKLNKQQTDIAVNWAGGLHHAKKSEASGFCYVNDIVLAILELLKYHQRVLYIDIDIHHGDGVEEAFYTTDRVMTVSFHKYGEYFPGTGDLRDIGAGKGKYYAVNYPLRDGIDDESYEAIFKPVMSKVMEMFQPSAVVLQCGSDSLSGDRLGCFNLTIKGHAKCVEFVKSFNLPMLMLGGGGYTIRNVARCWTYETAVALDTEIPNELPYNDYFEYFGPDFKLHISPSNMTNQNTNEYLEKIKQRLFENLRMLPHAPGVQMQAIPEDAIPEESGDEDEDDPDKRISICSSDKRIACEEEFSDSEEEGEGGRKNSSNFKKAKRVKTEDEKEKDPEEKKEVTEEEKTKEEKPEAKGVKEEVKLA
Activity calls are given as the source filed them. The calls are words filed in the database; no cut-off is given here.
Classes used: yes (1) for active, no (0) for inactive

# chem_smiles, category_label
records = [
    ("Cc1ccc(-c2csc(NC(=O)CCCCCCS)n2)cc1F", "yes (1)"),
    ("COc1cccc(-c2csc(NC(=O)CCCCCCS)n2)c1", "yes (1)"),
    ("Cc1ccc(-c2csc(NC(=O)CCCCCCS)n2)cc1", "yes (1)"),
    ("O=C(CCCCCCS)Nc1nc(-c2cccc(Cl)c2)cs1", "yes (1)"),
    ("CC(C)(C)c1ccc(-c2csc(NC(=O)CCCCCCS)n2)cc1", "yes (1)"),
    ("CN(C(=O)CCCCCCS)c1nc(-c2ccccc2)cs1", "no (0)"),
    ("COc1ccc(-c2csc(NC(=O)CCCCCCS)n2)cc1C", "yes (1)"),
    ("COc1ccc(-c2csc(NC(=O)CCCCCCS)n2)cc1", "yes (1)"),
    ("O=C(CCCCCCS)Nc1nc(-c2cccc(F)c2)cs1", "yes (1)"),
    ("Cc1cc(C)cc(-c2csc(NC(=O)CCCCCCS)n2)c1", "yes (1)"),
    ("CCCCc1ccc(-c2csc(NC(=O)CCCCCCS)n2)cc1", "yes (1)"),
    ("O=C(CCCCCCS)Nc1nc(-c2ccc(OC(F)(F)F)cc2)cs1", "yes (1)"),
    ("COc1c(C)cc(-c2csc(NC(=O)CCCCCCS)n2)cc1C", "yes (1)"),
    ("Cc1cccc(-c2csc(NC(=O)CCCCCCS)n2)c1", "yes (1)"),
    ("O=C(CCCCCCS)Nc1nc(-c2ccc(F)cc2)cs1", "yes (1)"),
    ("COc1cc(OC)cc(-c2csc(NC(=O)CCCCCCS)n2)c1", "yes (1)"),
]
